# target.under.test: Alpha-1D adrenergic receptor (Rattus norvegicus)
# Sequence (P23944 whole entry): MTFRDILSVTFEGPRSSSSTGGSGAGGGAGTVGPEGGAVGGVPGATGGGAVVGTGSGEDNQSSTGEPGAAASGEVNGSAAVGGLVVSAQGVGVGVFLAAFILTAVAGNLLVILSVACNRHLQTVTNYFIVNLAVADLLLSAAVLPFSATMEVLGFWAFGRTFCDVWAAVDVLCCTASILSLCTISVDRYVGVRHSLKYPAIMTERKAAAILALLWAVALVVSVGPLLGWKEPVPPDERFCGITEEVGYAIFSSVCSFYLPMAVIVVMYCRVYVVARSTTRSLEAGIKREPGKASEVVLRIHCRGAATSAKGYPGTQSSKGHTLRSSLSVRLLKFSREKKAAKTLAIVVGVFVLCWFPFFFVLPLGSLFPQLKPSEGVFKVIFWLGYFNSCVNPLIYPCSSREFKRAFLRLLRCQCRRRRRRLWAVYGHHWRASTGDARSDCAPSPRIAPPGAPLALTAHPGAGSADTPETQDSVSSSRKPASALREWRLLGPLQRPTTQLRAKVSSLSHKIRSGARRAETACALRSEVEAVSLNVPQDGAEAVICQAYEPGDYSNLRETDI
# assay.procedure: Antagonist activity at alpha1D adrenoceptor in Sprague-Dawley rat thoracic aorta assessed as inhibition of noradrenaline-induced contractions after 30 mins
# Format: functional, tissue-based
# experimental.setup: read-out: pA2 (converted)
observed.property: Kb (nM)

INSERT INTO measurements (smiles_string, target_under_test, observed_property, experimental_value) VALUES
  ('COc1cccc(OC)c1OCCNC[C@H]1COc2cccc(OC)c2O1.Cl', 'Alpha-1D adrenergic receptor (Rattus norvegicus)', 'Kb', 11.7);

[P] COc1cccc(OC)c1OCCNC[C@H]1COc2c(OC)cccc2O1.Cl
[Q] COc1cccc(OC)c1OCCNC[C@H]1COc2cccc(F)c2O1.Cl
[R] COc1cccc(OC)c1OCCNC[C@H]1COc2cccc(O)c2O1.Cl
[S] COc1cccc(OC)c1OCCNC[C@H]1COc2cccc(Cl)c2O1.Cl
*Q* Sequence the entries by Kb, beginning with the highest number. # format: label list in the order the request specifies
*A* R, Q, P, S
(R: 51.3 nM, Q: 9.33 nM, P: 5.75 nM, S: 3.02 nM)
